- tgt: T1, human Trophoblast cell surface antigen 2 (TROP2) (human, UniProt P09758 27-274, limits assumed)
- T1 construct: Analyte in the SPR experiments and immunogen; also called human TROP2
- T1 sequence: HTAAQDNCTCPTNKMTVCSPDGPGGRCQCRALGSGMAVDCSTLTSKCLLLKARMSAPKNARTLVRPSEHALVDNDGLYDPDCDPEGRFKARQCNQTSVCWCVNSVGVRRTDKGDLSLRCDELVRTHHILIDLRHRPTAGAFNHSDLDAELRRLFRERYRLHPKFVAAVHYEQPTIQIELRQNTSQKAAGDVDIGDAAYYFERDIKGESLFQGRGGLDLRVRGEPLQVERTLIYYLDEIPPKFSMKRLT
- runDescription: SPR affinity ranking, human TROP2
Entries annotated with measured Kd
All answers are understood in nM, so give the number only.

Q. I'd like to know its Kd. The binder in question is HC4/LC3 (antibody, human IgG1, kappa, V domains shown, Humanized anti-TROP2 antibody) VH: QVQLVQSGAEVKKPGSSVKVSCKASGYTFTDYSINWVRQAPGQGLEWMGVISTYYGDASYNQKFKGRVTITADESTSTAYMELSSLRSEDTAVYYCARYGDGYNQFDYWGQGTLVTVSS VL: DIVMTQSPLSLPVTPGEPASISCRVSESVDSYGNNFMHWYLQKPGQSPQLLIYRASNLESGVPDRFSGSGSGTDFTLKISRVEAEDVGVYYCQQSYEDPYTFGGGTKVEIKR
A. 0.0916

Q. Also check HC5/LC5 (antibody, human IgG1, kappa, V domains shown, Humanized anti-TROP2 antibody) VH: EVQLVQSGAEVKKPGESLKISCKGSGYTFTDYSINWVRQMPGKGLEWMGVISTYYGDASYNQKFKGQVTISADKSISTAYLQWSSLKASDTAMYYCARYGDGYNQFDYWGQGTLVTVSS VL: DIQMTQSPSSLSASVGDRVTITCRVSESVDSYGNNFMHWYQQKPGKAPKLLIYRASNLESGVPSRFSGSGSGTDFTFTISSLQPEDIATYYCQQSYEDPYTFGGGTKLEIKR
A. 0.238

Hello, the source for this data is patent US20220153862A1, in case you need it.
